Tested on: aromatase
assay info: PET measurement (binding potential images and SUV in brain regions)
condition summary: Rhesus macaques, cerebellum, amygdala, hypothalamus, nucleus accumbens
property name: temporal change in SUV (standardized uptake value) in the latter part of scanning

[11CH3]c1cccc(CN(c2ccc(C#N)cc2)n2cnnc2)c1 [Compound (22)] : decreases as time passes
[11CH3]c1ccc(CN(c2ccc(C#N)cc2)n2cncn2)cc1 [Compound (39)] : decreases as time passes
[11CH3]c1ccc(CN(c2ccc([N+](=O)[O-])cc2)n2cnnc2)cc1 [Compound (33)] : decreases as time passes
[11CH3]c1ccc(CN(c2ccc(C#N)cc2)n2cnnc2)cc1 [Compound (10)] : decreases as time passes
